- Tested on: B16-F10
- PROTOCOL TEXT: Antiproliferative activity against mouse B16F10 cells after 48 hrs by MTT assay
- Type: functional, cell-based
- STATED CONDITIONS: B16-F10, 48 h
REPORTED ENDPOINT: pIC50
Answers are plain numbers, as −log10 of the molar value.

Asked: Value wanted: pIC50 (B16-F10) of entry C#Cc1cccc(Nc2ncnc3cc(OCCOC)c(OCCOC)cc23)c1 [ERLOTINIB]
Given back: 6.92

###

- Test system: Leishmania amazonensis
- PROTOCOL TEXT: Antileishmanial activity against Leishmania amazonensis amastigotes after 24 hrs by MTT assay
- Assay type: functional, organism-based
REPORTED ENDPOINT: pIC50
Give bare numbers, as −log10 of the molar value.

Asked: # lookup: pIC50 of COc1ccc(-n2ncc(-c3nnn[nH]3)c2N)cc1
Given back: 4.65
